Data origin, for the record: PubChem BioAssay AID488779

# reported inhibition; entries follow
measured on: Steroidogenic factor 1 (Homo sapiens) (UniProt Q13285)
Sequence (Q13285 whole entry, looked up): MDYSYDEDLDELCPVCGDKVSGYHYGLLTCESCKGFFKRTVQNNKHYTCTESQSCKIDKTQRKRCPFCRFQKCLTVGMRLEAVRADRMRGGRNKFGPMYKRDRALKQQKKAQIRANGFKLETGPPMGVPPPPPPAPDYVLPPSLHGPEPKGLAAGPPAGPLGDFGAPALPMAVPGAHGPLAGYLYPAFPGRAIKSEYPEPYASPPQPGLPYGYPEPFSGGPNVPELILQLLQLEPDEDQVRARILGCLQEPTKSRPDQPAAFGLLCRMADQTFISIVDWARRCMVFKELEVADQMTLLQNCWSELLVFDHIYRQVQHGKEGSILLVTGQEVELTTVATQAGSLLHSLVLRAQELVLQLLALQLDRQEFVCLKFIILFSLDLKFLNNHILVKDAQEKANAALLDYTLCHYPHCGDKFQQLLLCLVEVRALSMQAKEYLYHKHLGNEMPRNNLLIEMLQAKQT
experiment: nuclear receptor SF-1 transcriptional inhibitors – cell-based, luminescence, powder samples, single concentration, selectivity assay for LRH1 inverse agonist project, confirmation (AID 488779)
experimental conditions: HEK293T SF-1 5xSFRE luciferase reporter, 20 h; at 5 µM; stronger effect = higher value
Active and inactive are the calls of the source.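 The calls were made as follows: active = SF-1 luciferase reporter signal in cells inhibited by more than 25%; inactive = the rest.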
test readout: inhibition

[
  {
    "structure": "Cc1cc(C)cc(N2CCN(c3cc(=O)n(C4CCCCC4)c(=O)[nH]3)CC2)c1",
    "result": "-4% (inactive)"
  },
  {
    "structure": "O=c1cc(N2CCN(c3cccc(C(F)(F)F)c3)CC2)[nH]c(=O)n1-c1ccccc1",
    "result": "-3% (inactive)"
  },
  {
    "structure": "O=c1cc(N2CCN(c3ccccc3C(F)(F)F)CC2)[nH]c(=O)n1C1CCCCC1",
    "result": "5% (inactive)"
  },
  {
    "structure": "CCn1c(=O)cc(N2CCN(c3cccc(Cl)c3)CC2)[nH]c1=O",
    "result": "-10% (inactive)"
  },
  {
    "structure": "O=c1cc(N2CCCC2)[nH]c(=O)n1C1CCCCC1",
    "result": "5% (inactive)"
  }
]

====

measured on: Steroidogenic factor 1 (Homo sapiens) (UniProt Q13285)
experiment: nuclear receptor SF-1 transcriptional inhibitors – cell-based, luminescence, powder samples, single concentration, selectivity assay for LRH1 inverse agonist project, confirmation (AID 488779)
experimental conditions: HEK293T SF-1 5xSFRE luciferase reporter, 20 h; at 5 µM; stronger effect = higher value
# reported inhibition; entries follow
test readout: inhibition (%)

[
  {
    "structure": "O=c1cc(N2CCc3ccccc32)[nH]c(=O)n1C1CCCCC1",
    "unit spec": "%",
    "number": 23
  },
  {
    "structure": "O=c1cc(N2CCN(Cc3ccc(Cl)cc3)CC2)[nH]c(=O)n1C1CCCCC1",
    "unit spec": "%",
    "number": -4
  },
  {
    "structure": "O=c1cc(N2CCCCC2)[nH]c(=O)n1C1CCCCC1",
    "unit spec": "%",
    "number": 23
  },
  {
    "structure": "O=c1cc(N2CCN(CCN3CCOCC3)CC2)[nH]c(=O)n1C1CCCCC1",
    "unit spec": "%",
    "number": 9
  },
  {
    "structure": "O=c1cc(N2CCN(c3cc(C(F)(F)F)ccn3)CC2)[nH]c(=O)n1C1CCCCC1",
    "unit spec": "%",
    "number": -83
  },
  {
    "structure": "CCn1c(=O)cc(N2CCN(c3cccc(C(F)(F)F)c3)CC2)[nH]c1=O",
    "unit spec": "%",
    "number": -81
  },
  {
    "structure": "O=c1cc(N2CCN(c3ccccc3Cl)CC2)[nH]c(=O)n1C1CCCCC1",
    "unit spec": "%",
    "number": -19
  },
  {
    "structure": "O=c1cc(N2CCN(c3cccc(F)c3)CC2)[nH]c(=O)n1C1CCCCC1",
    "unit spec": "%",
    "number": -112
  },
  {
    "structure": "O=c1cc(N2CCN(c3ccccc3)CC2)[nH]c(=O)n1Cc1ccc(F)cc1",
    "unit spec": "%",
    "number": -18
  }
]
